Cytochrome P450 2C9 (Homo sapiens, UniProt P11712): reported AC50 for various molecules.
Sequence (P11712 whole entry): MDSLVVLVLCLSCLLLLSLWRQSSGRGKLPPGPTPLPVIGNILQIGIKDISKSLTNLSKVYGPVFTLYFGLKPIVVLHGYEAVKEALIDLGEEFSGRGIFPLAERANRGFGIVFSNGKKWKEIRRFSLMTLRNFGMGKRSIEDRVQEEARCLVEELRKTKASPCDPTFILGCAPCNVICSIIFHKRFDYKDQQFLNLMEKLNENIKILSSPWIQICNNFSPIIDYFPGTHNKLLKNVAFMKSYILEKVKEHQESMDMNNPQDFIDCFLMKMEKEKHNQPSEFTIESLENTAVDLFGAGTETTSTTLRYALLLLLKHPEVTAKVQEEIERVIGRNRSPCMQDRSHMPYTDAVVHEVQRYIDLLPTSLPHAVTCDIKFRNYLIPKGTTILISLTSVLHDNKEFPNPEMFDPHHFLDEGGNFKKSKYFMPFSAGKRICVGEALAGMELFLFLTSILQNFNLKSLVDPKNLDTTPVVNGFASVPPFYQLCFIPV

Example entries and their recorded answers appear below.
# molecule, tested system, observed result
measured = [
    ("C[C@H](CO)NC(=O)[C@H](C)[C@@H]1C[C@@]1(C)[C@@H](NC(=O)OCc1ccccc1)c1ccccc1", "Cytochrome P450 2C9 (Homo sapiens, UniProt P11712)", "39.8 µM (inconclusive)"),
    ("CCc1nc(N[C@H](C(=O)O)C(C)CC)c2oc3ccccc3c2n1 (stereo partly specified)", "Cytochrome P450 2C9 (Homo sapiens, UniProt P11712)", "0.00891 µM (inconclusive)"),
    ("COc1ccc(CCNC(=O)C2CCCN(Cc3nc(-c4cccc(Cl)c4)oc3C)C2)cc1OC (stereo unspecified)", "Cytochrome P450 2C9 (Homo sapiens, UniProt P11712)", "6.31 µM (inconclusive)"),
    ("O=C(COc1ccc(Cl)cc1)Nc1ccc(N2CCN(C(=O)c3ccco3)CC2)cc1", "Cytochrome P450 2C9 (Homo sapiens, UniProt P11712)", "1.12 µM (inconclusive)"),
    ("Cc1ccc(C)n1NC(=O)c1ccccc1", "Cytochrome P450 2C9 (Homo sapiens, UniProt P11712)", "0.141 µM (inconclusive)"),
]

Query: # AC50 lookup, item O=C(Nc1cccc(C(F)(F)F)c1)C1CCCN1S(=O)(=O)c1cccc2cccnc12 (stereo unspecified)
Result: 5.62 µM (inconclusive)
